# TARGET OF ASSAY: dopamine D4 receptor (Homo sapiens (Human), UniProt P21917)
# Sequence (P21917 whole entry, species assumed): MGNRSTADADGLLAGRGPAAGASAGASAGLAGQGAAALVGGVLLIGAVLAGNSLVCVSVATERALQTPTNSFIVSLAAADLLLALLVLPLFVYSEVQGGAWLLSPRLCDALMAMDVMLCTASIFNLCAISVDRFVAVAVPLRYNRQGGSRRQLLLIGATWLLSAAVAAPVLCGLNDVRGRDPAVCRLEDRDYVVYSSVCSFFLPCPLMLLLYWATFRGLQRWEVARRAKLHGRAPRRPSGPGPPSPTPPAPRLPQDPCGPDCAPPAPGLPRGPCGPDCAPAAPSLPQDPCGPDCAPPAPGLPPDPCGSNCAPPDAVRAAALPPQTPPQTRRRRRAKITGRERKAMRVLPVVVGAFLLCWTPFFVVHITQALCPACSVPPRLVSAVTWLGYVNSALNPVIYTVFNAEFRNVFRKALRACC
# PROTOCOL SUMMARY: Secondary radioligand binding assay, D4
# ASSAY CONDITIONS: receptor binding; average of at least two experiments; read-out: Ki D4
Structures can show the parent of a compound that is named as a salt.
EXPERIMENTAL ENDPOINT: pKi
pKi (log units): -log10 of the concentration in mol/L.

Look over these answered cases.
compound="O=C(CN1CCO[C@@H](COc2cccc(Cl)c2)C1)N1CCc2ccccc21 [Compound 22r]" experimental_endpoint=pKi numeric_result=6.27
compound="O=C(CN1CCO[C@H](COc2cccc(Cl)c2)C1)N1CCc2ccccc21 [Compound 22s]" experimental_endpoint=pKi numeric_result=5.54
compound="Cc1ccnc(OC[C@H]2CN(CCN3CCc4ccccc43)CCO2)c1 [Compound 17r]" experimental_endpoint=pKi numeric_result=5.71
compound="Fc1ccc(OC[C@@H]2CN(CCN3CCc4ccccc43)CCO2)cc1 [Compound 32s, hydrochloride]" experimental_endpoint=pKi numeric_result=5.41
compound="c1ccc(OC[C@H]2CN(CCN3CCc4ccccc43)CCO2)nc1 [Compound 15r]" experimental_endpoint=pKi numeric_result=6.09

Query string: May I ask what pKi has been recorded for Cc1ccnc(C)c1OC[C@H]1CN(CCN2CCc3ccccc32)CCO1 [Compound 29r] ?
Result string: 5.31

Query string: May I ask what pKi has been recorded for O=C(CN1CCO[C@H](COc2ccccc2)C1)N1CCc2ccccc21 [Compound 18s] ?
Result string: 5.26

Query string: May I ask what pKi has been recorded for c1cncc(OC[C@@H]2CN(CCN3CCc4ccccc43)CCO2)c1 [Compound 21s] ?
Result string: 6.74

Query string: May I ask what pKi has been recorded for CC1Cc2ccccc2N1C(=O)CN1CCO[C@H](COc2cccc(Cl)c2)C1 (some centres unmarked) ?
Result string: 5.62

Query string: May I ask what pKi has been recorded for c1cncc(OC[C@H]2CN(CCN3CCc4ccccc43)CCO2)c1 [Compound 21r] ?
Result string: 5.62
